# target entity: HLA-A*02:06 molecule (Homo sapiens, UniProt P04439, D140Y/D185E/D98H/E176V/E277Q/F33Y/G131W/G231S/I119V/I121R/I166T/I218V/L300P/L318F/N151K/N90K/P208A/P217A/Q86G/Q94H/R138H/R169H/T345S)
# Construct: expressed in transfected cells; host or cells: RA2.6 cells (mouse TAP-deficient RMAS with HLA-A*02:06 cDNA)
# run description: Binding of peptide to HLA-A*02:06 molecule using RA2.6 cells
# settings: Table 2; dissociation constant Kd value (−log Kd value); >−3.0 = no significant binding ability; read-out: Measured value of allele A*02:06 (converted)
No end group written: not given here.
test readout: Kd (µM)

>>> print(df.to_string())
           input_sequence  recorded_value
0  CLDEHQWQL [compound 9]           0.474

1 = ALAPPTAQL [compound 6]
2 = CTDEHQWQL [compound 39]
stdin: Which entry has a larger number for Kd, 1 or 2 ? Lab log: write the label of the selected item as the result.
stdout: 1
